System: HT-29 cells
Assay: In vitro anti-proliferative activity against HT-29 cells (intracellular ATP content, 72 h)
Format: cell-based
Settings: Homo sapiens, 72 h after dosing
So I've got a bunch of compounds here, and I need their IC50 values.
Unit µM implied. Number only.

## Input Give the measured IC50 of COc1ccc(NC(=O)c2ccc(NS(=O)(=O)CCOC(C)=O)cc2N2CCC3(CC2)CC3)nc1N1CCC(F)(F)CC1 .
## Output 0.0258

## Input Give the measured IC50 of CN(C)c1ccc(C(=O)Nc2ccc(NS(=O)(=O)CCO)cc2N2CCC3(CC2)CC3)cc1N1CCC(F)(F)CC1 .
## Output 0.184

## Input Give the measured IC50 of O=C(Nc1ccc(OC(F)(F)F)c(N2CCC(F)(F)CC2)c1)c1ccc(NS(=O)(=O)CCO)cc1N1CCC2(CC1)CC2 .
## Output 1.17

## Input Give the measured IC50 of COc1ccc(C(=O)Nc2ccc(NS(=O)(=O)CCO)cc2N2CCC3(CC2)CC3)nc1N1CCC(F)(F)CC1 .
## Output 0.0593

## Input Give the measured IC50 of Cc1cc(NC(=O)c2ccc(NS(=O)(=O)CCO)cc2N2CCC3(CC2)CC3)nc(N2CCC(F)(F)CC2)n1 [AMG650, reference compound] .
## Output 0.109

## Input Give the measured IC50 of Nc1ccc(NC(=O)c2ccc(NS(=O)(=O)CCO)cc2N2CCC3(CC2)CC3)cc1N1CCC(F)(F)CC1 .
## Output 0.0767

## Input Give the measured IC50 of O=C(Nc1ccc(NS(=O)(=O)CCO)cc1N1CCC2(CC1)CC2)c1ccc([N+](=O)[O-])c(N2CCC(F)(F)CC2)n1 .
## Output 0.0661

## Input Give the measured IC50 of COc1ccc(NC(=O)c2ccc(NS(=O)(=O)CCOC(=O)C(C)C)cc2N2CCC3(CC2)CC3)nc1N1CCC(F)(F)CC1 .
## Output 0.035

## Input Give the measured IC50 of C[C@H]1CN(c2cc(NC(=O)c3ccc(NS(=O)(=O)CCO)cc3N3CCC4(CC3)CC4)ccc2[N+](=O)[O-])CCO1 .
## Output 1.6

## Input Give the measured IC50 of COc1ccc(NC(=O)c2ccc(NS(=O)(=O)CCO)cc2N2CCC3(CC2)CC3)nc1N1CCO[C@@H](C)C1 .
## Output 0.282

## Input Give the measured IC50 of COc1ccc(NC(=O)c2ccc(NS(=O)(=O)CCO)cc2N2CCC3(CC2)CC3)nc1N1CCC(F)(F)CC1 .
## Output 0.0111

## Input Give the measured IC50 of COc1ccc(NC(=O)c2ccc(NS(=O)(=O)CCO)cc2N2CCC3(CC2)CC3)nc1OC1CCC1 .
## Output 0.0857

## Input Give the measured IC50 of COc1ccc(NC(=O)c2cnc(NS(=O)(=O)CCO)cc2N2CCC3(CC2)CC3)nc1N1CCC(F)(F)CC1 .
## Output 0.0277

## Input Give the measured IC50 of COc1ccc(NC(=O)c2ccc(NS(=O)(=O)CCO)cc2N2CCC3(CC2)CC3)nc1N1CC(F)(F)C1 .
## Output 0.0552

## Input Give the measured IC50 of CN(C)c1ccc(NC(=O)c2ccc(NS(=O)(=O)CCO)cc2N2CCC3(CC2)CC3)nc1N1CCC(F)(F)CC1 .
## Output 0.334

## Input Give the measured IC50 of COc1c(C)cc(NC(=O)c2ccc(NS(=O)(=O)CCO)cc2N2CCC3(CC2)CC3)nc1N1CCC(F)(F)CC1 .
## Output 0.253

## Input Give the measured IC50 of O=C(Nc1ccc([N+](=O)[O-])c(N2CCC(F)(F)CC2)c1)c1ccc(NS(=O)(=O)CCO)cc1N1CCC2(CC1)CC2 .
## Output 0.0753

## Input Give the measured IC50 of COc1ccc(NC(=O)c2ccc(NS(=O)(=O)CCO)cc2N2CCC3(CC2)CC3)nc1N1CCO[C@H](C)C1 .
## Output 0.19

## Input Give the measured IC50 of COc1ccc(C(=O)Nc2ccc(NS(=O)(=O)CCOC(C)=O)cc2N2CCC3(CC2)CC3)nc1N1CCC(F)(F)CC1 .
## Output 0.0258

## Input Give the measured IC50 of COc1ccc(NC(=O)c2ccc(NS(=O)(=O)CCO)cc2N2CCC3(CC2)CC3)nc1NCCC(F)(F)F .
## Output 0.0707

## Input Give the measured IC50 of COc1ccc(C(=O)Nc2cnc(NS(=O)(=O)CCO)cc2N2CCC3(CC2)CC3)nc1N1CCC(F)(F)CC1 .
## Output 0.0746

## Input Give the measured IC50 of CN(C)c1ccc(C(=O)Nc2ccc(NS(=O)(=O)CCO)cc2N2CCC3(CC2)CC3)nc1N1CCC(F)(F)CC1 .
## Output 0.146

## Input Give the measured IC50 of CNc1ccc(NC(=O)c2ccc(NS(=O)(=O)CCO)cc2N2CCC3(CC2)CC3)cc1N1CCC(F)(F)CC1 .
## Output 0.0758

## Input Give the measured IC50 of O=C(Nc1ccc([N+](=O)[O-])c(OC2CCC2)c1)c1ccc(NS(=O)(=O)CCO)cc1N1CCC2(CC1)CC2 .
## Output 0.339

## Input Give the measured IC50 of CCOc1ccc(NC(=O)c2ccc(NS(=O)(=O)CCO)cc2N2CCC3(CC2)CC3)nc1N1CCC(F)(F)CC1 .
## Output 0.0712

## Input Give the measured IC50 of CNc1ccc(C(=O)Nc2ccc(NS(=O)(=O)CCO)cc2N2CCC3(CC2)CC3)cc1N1CCC(F)(F)CC1 .
## Output 0.0642
